Taken from ChEMBL document CHEMBL3244135.

# Species on record: Mus musculus
# method: Binding affinity to prostanoid receptor in [8-14C]-adenine-treated CD-1 mouse ovary assessed as increase in c-AMP production at 10 ug/mL after 30 mins by paper chromatographic analysis in presence of phosphodiesterase inhibitor theophylline
# Assay type: tissue-based
# study_conditions: Female gonad
measured_parameter: fold change (FC)

Sample answers from the record:
> print(dat)
                                   compound  measured.parameter  observed.value
1  CCCCCC(O)CCCC(CCCCCCC(=O)O)C(=O)CC (stereo not given)    fold change (FC)               6
2  CCCCC[C@@H](O)CCCC(CCCCCCC(=O)O)C(C)=O (stereo not given in full)    fold change (FC)               5
3  CCCCCCCC(O)CCCC(CCCCCCC(=O)O)C(C)=O (stereo not given)    fold change (FC)              19
4  CCCCCCC(O)CCC(CCCCCCC(=O)O)C(C)=O (stereo not given)    fold change (FC)               5
5  CCCC(O)CCCCCC(CCCCCCC(=O)O)C(C)=O (stereo not given)    fold change (FC)               4
6  CCCCC(O)CCCCC(CCCCCCC(=O)O)C(C)=O (stereo not given)    fold change (FC)               9
7  CCCCC[C@H](O)C#CCC(CCCCCCC(=O)O)C(C)=O (stereo not given in full)    fold change (FC)               3

I: CCCCCC(O)CCCC(CCCCCCC(=O)O)C(C)=O (racemic)
II: CC(=O)C(CCCCCCC(=O)O)CCCC1(O)CCCCC1 (stereo not given)
III: CCCCCC(O)C#CCC(CCCCCCC(=O)O)C(C)=O (stereo not given)
QUERY: Please order the records by their reported fold change (FC), lowest number first. Ranked list of labels, please, in the requested order.
RESULT: II, III, I

###

# Organism: Mus musculus
# method: Binding affinity to prostanoid receptor in [8-14C]-adenine-treated CD-1 mouse ovary assessed as increase in c-AMP production at 100 ug/mL after 30 mins by paper chromatographic analysis in presence of phosphodiesterase inhibitor theophylline
# Format: tissue-based
# study_conditions: Female gonad
measured_parameter: fold change (FC)

> print(dat)
                                   compound  observed.value
1  CCCC(O)CCCCCC(CCCCCCC(=O)O)C(C)=O (stereo unspecified)               8
2  CCCCCCC(O)CCC(CCCCCCC(=O)O)C(C)=O (stereo unspecified)              11
3  CC(=O)C(CCCCCCC(=O)O)CCCC(C)O (stereo unspecified)               1
4  CCCCCC(O)/C=C/CC(CCCCCCC(=O)O)C(C)=O (stereo unspecified)              14
5  CCCCCC(O)CCCC(CCCCCCC(=O)O)C(C)=O (racemic)              23
6  CC(=O)C(CC#CC1(O)CCCCC1)CCCCCCC(=O)O (stereo unspecified)               1
7  CCCCC[C@@H](O)CCCC(CCCCCCC(=O)O)C(C)=O (stereo partly specified)              19
8  CCCCCC(O)C#CCC(CCCCCCC(=O)O)C(C)=O (stereo unspecified)               7

P: CCCCC[C@@H](O)C#CCC(CCCCCCC(=O)O)C(C)=O (stereo partly specified)
Q: CCCCCC(O)CCCC(CCCCCCC(=O)O)C(C)O (stereo unspecified)
QUERY: Name the one with the greater fold change (FC) value, either P or Q as given. Pick one; state its label.
RESULT: Q
(Q: 33, P: 3)

###

# Species: Mus musculus
# method: Binding affinity to prostanoid receptor in [8-14C]-adenine-treated CD-1 mouse ovary assessed as increase in c-AMP production at 25 ug/mL after 30 mins by paper chromatographic analysis in presence of phosphodiesterase inhibitor theophylline
# Type: tissue-based
# study_conditions: Female gonad
measured_parameter: fold change (FC)

Sample answers from the record:
> print(dat)
                                   molecule  observed.value
1  CC(=O)C(CCCCCCC(=O)O)CCCC(O)CCc1ccccc1 (stereo not given)               1
2  CCCCCC(O)CCCC(CCCCCCC(=O)O)C(C)=O (racemic)              19
3  CCCCC[C@@H](O)C#CCC(CCCCCCC(=O)O)C(C)=O (stereo not given in full)               3

I: CC(=O)C(CCCCCCC(=O)O)CCCC(C)O (stereo not given)
II: CCCC(O)CCCCCC(CCCCCCC(=O)O)C(C)=O (stereo not given)
III: CCCCC(O)CCCCC(CCCCCCC(=O)O)C(C)=O (stereo not given)
IV: CCCCC[C@H](O)CCCC(CCCCCCC(=O)O)C(C)=O (stereo not given in full)
V: CCCCCC(O)CCCC(CCCCCCC(=O)O)C(=O)CC (stereo not given)
QUERY: Descending sort on fold change (FC) required. Ranked list of labels, please, in the requested order.
RESULT: IV, V, III, II, I
(IV: 25, V: 17, III: 9, II: 4, I: 1)

a: CCCCCC(O)C#CCC(CCCCCCC(=O)O)C(C)=O (stereo not given)
b: CCCCCC(C)(O)CCCC(CCCCCCC(=O)O)C(C)=O (stereo not given)
QUERY: Select the item whose fold change (FC) value is smaller, choosing between a and b . Pick one; state its label.
RESULT: a
(a: 4, b: 9)

I: CC(=O)C(CCCCCCC(=O)O)CCCC1(O)CCCCC1 (stereo not given)
II: CCCCCC(O)/C=C/CC(CCCCCCC(=O)O)C(C)=O (stereo not given)
QUERY: Name the one with the greater fold change (FC) value, either I or II as given. Pick one; state its label.
RESULT: II
(II: 8, I: 3)

###

# Organism: Mus musculus
# method: Binding affinity to prostanoid receptor in [8-14C]-adenine-treated CD-1 mouse ovary assessed as increase in c-AMP production at 100 ug/mL after 30 mins by paper chromatographic analysis in presence of phosphodiesterase inhibitor theophylline
# Format: tissue-based
# study_conditions: Female gonad
measured_parameter: fold change (FC)

Sample answers from the record:
> print(dat)
                                   compound  observed.value
1  CC(=O)C(CCCCCCCCCO)CCCCCCC(=O)O (stereo unspecified)               1
2  CCCCCCCC(O)CCCC(CCCCCCC(=O)O)C(C)=O (stereo unspecified)              39

P: CC(=O)C(CCCCCCC(=O)O)CCCC1(O)CCCCC1 (stereo unspecified)
Q: CCCCC[C@H](O)CCCC(CCCCCCC(=O)O)C(C)=O (stereo partly specified)
R: CC(=O)C(CCCCO)CCCCCCC(=O)O (stereo unspecified)
S: CCCCCC(O)CCCC(CO)CCCCCCC(=O)O (stereo unspecified)
QUERY: Descending sort on fold change (FC) required. Ranked list of labels, please, in the requested order.
RESULT: Q, S, P, R

###

# Species: Mus musculus
# method: Binding affinity to prostanoid receptor in [8-14C]-adenine-treated CD-1 mouse ovary assessed as increase in c-AMP production at 25 ug/mL after 30 mins by paper chromatographic analysis in presence of phosphodiesterase inhibitor theophylline
# Assay type: tissue-based
# study_conditions: Female gonad
measured_parameter: fold change (FC)

Sample answers from the record:
> print(dat)
                                   compound  measured.parameter  observed.value
1  CCCCCCCC(O)CCCC(CCCCCCC(=O)O)C(C)=O (stereo not drawn)    fold change (FC)              37
2  CCCCC[C@@H](O)CCCC(CCCCCCC(=O)O)C(C)=O (stereo partly drawn)    fold change (FC)              12
3  CC(=O)C(CCCCCCCCCO)CCCCCCC(=O)O (stereo not drawn)    fold change (FC)               1
4  CCCCC[C@H](O)C#CCC(CCCCCCC(=O)O)C(C)=O (stereo partly drawn)    fold change (FC)               7

A: CCCCCC(=O)CCCC(CCCCCCC(=O)O)C(C)=O (stereo not drawn)
B: CC(=O)C(CC#CC1(O)CCCCC1)CCCCCCC(=O)O (stereo not drawn)
QUERY: Select the item whose fold change (FC) value is smaller, choosing between A and B . Pick one; state its label.
RESULT: B

I: CCCCCC(O)CCCC(CO)CCCCCCC(=O)O (stereo not drawn)
II: CCCCCC(O)CCCC(CCCCCCC(=O)O)C(C)O (stereo not drawn)
QUERY: Select the item whose fold change (FC) value is smaller, choosing between I and II . Pick one; state its label.
RESULT: I
